# System: Aβ42 (Homo sapiens, UniProt P05067)
# Sequence (P05067 672-713): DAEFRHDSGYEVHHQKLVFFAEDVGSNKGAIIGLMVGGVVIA
# Protocol description: Th-T (thioflavin-T) assay of Aβ42 aggregation
# Format: biochemical
# Experimental setup: column suffix _50; reading M9
Endpoint: Th-T assay signal, mean of three wells (Fig. 7a)

- Molecule: "C=C1CCC2C(C)(CCC=C(C)C)C(O)CCC2(C)C1Cc1c(OC)oc(CO)c(C)c1=O (centres unmarked)"
  System: "Aβ42 (Homo sapiens, UniProt P05067)"
  Result: 2.034
- Molecule: "C=C1CCC2C(C)(CCC=C(C)C)C(O)CCC2(C)C1Cc1c(OC)oc(CO)c(C(=O)OC)c1=O (centres unmarked)"
  System: "Aβ42 (Homo sapiens, UniProt P05067)"
  Result: 0.17
- Molecule: "C=C1CC[C@@H]2[C@](C)(CC[C@H]3O[C@H](C=C(C)C)C[C@@]23C)[C@@H]1Cc1c(OC)oc(CO)c(C)c1=O"
  System: "Aβ42 (Homo sapiens, UniProt P05067)"
  Result: 0.6726
- Molecule: "C=C1CCC2C(C)(CCC=C(C)C)C(O)CCC2(C)C1Cc1c(OC)oc(C)c(C(=O)OC)c1=O (centres unmarked)"
  System: "Aβ42 (Homo sapiens, UniProt P05067)"
  Result: 0.4533
- Molecule: "C=C1CC[C@@H]2[C@](C)(CC[C@H]3O[C@H](C=C(C)C)C[C@@]23C)[C@@H]1Cc1c(OC)oc(CO)c(C(=O)OC)c1=O"
  System: "Aβ42 (Homo sapiens, UniProt P05067)"
  Result: 0.2085

----------
# Test system: l(2)mbn cells
# Protocol description: cytotoxicity in Drosophila l(2)mbn cells
# Type: cell-based
# Experimental setup: Drosophila melanogaster, cytotoxicity, replicate 1, read-out: IC50 (1)
pIC50: −log10 of the molar value.
Each record here notes measured pIC50.

- Molecule: "C=C1CCC2C3(C)CC(C=C(C)C)OC3CCC2(C)C1Cc1c(OC)oc(C)c(C)c1=O (stereo not shown)"
  pIC50: 5.91
- Molecule: "C=C1CC[C@H]2[C@]3(C)C[C@H](C=C(C)C)O[C@H]3CC[C@]2(C)[C@@H]1Cc1c(OC)oc(C)c(C)c1=O"
  pIC50: 5.49
- Molecule: "C=C1CC[C@H]2[C@]3(C)C[C@H](C=C(C)C)O[C@H]3CC[C@]2(C)[C@@H]1Cc1c(O)c(C)c(C)oc1=O"
  pIC50: 6.07
- Molecule: "C=C1CC[C@@H]2[C@](C)(CC[C@H]3O[C@H](C=C(C)C)C[C@@]23C)[C@@H]1Cc1c(OC)oc(CO)c(C)c1=O"
  pIC50: 5.88
- Molecule: "C=C1CCC2C(C)(CCC=C(C)C)C(=O)CCC2(C)C1Cc1c(O)c(C)c(C)oc1=O (stereo not shown)"
  pIC50: 5.32
- Molecule: "C=C1CC[C@H]2[C@]3(C)C[C@H](C=C(C)C)O[C@H]3CC[C@]2(C)[C@@H]1Cc1c(OC)oc(CO)c(C)c1=O"
  pIC50: 5.31
- Molecule: "C=C1CC[C@H]2[C@]3(C)C[C@@H](C=C(C)C)O[C@H]3CC[C@]2(C)[C@@H]1Cc1c(O)c(C)c(C)oc1=O"
  pIC50: 6.71

----------
Each record here notes measured Fig. 7a Th-T reading, mean of three wells.
# System: Aβ42 (Homo sapiens, UniProt P05067)
# Protocol description: Th-T (thioflavin-T) assay of Aβ42 aggregation
# Type: biochemical
# Experimental setup: column suffix _20; reading M106
Endpoint: Fig. 7a Th-T reading, mean of three wells

- Compound: "C=C1CC[C@@H]2[C@](C)(CC[C@H]3O[C@H](C=C(C)C)C[C@@]23C)[C@@H]1Cc1c(OC)oc(CO)c(C(=O)OC)c1=O"
  Result number: 0.9399
- Compound: "C=C1CCC2C(C)(CCC=C(C)C)C(O)CCC2(C)C1Cc1c(OC)oc(C)c(C(=O)OC)c1=O (centres unmarked)"
  Result number: 1.718
- Compound: "C=C1CC[C@@H]2[C@](C)(CC[C@H]3O[C@H](C=C(C)C)C[C@@]23C)[C@@H]1Cc1c(OC)oc(CO)c(C)c1=O"
  Result number: 3.248
- Compound: "C=C1CCC2C(C)(CCC=C(C)C)C(O)CCC2(C)C1Cc1c(OC)oc(CO)c(C(=O)OC)c1=O (centres unmarked)"
  Result number: 1.043
- Compound: "C=C1CCC2C(C)(CCC=C(C)C)C(O)CCC2(C)C1Cc1c(OC)oc(CO)c(C)c1=O (centres unmarked)"
  Result number: 2.107
